B1: library; numbered along this chain (parent)
chain: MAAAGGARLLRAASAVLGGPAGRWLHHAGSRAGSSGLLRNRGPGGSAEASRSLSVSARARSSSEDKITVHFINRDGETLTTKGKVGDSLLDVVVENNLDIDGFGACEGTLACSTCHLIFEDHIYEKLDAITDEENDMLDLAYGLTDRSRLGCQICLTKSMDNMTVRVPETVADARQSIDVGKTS

Variants of: B1
assay-name: scaled log2 fold change in cell abundance, elesclomol vs control (0 = silent mean, 1 = nonsense mean) (scaled log2 ratio); higher = higher viability under elesclomol (loss of FDX1 cuproptosis function);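 note: variant abundance is its share of total variant reads in each endpoint sample, from next-generation sequencing of the integrated ORF PCR-amplified out of genomic DNA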
experimental-parameters: with ABC1 FDX1 KO; elesclomol 5 nM; glucose 10 mM; 14 days
// reported scaled log2 fold change per item
// print number alone

# annotated cases, reported scaled log2 fold change shown
[[record]]
variant_key = "M160E"
value = 0.143

[[record]]
variant_key = "A2I"
value = -0.127

[[record]]
variant_key = "P168K"
value = 0.508

[[record]]
variant_key = "T80P"
value = 0.231

[[record]]
variant_key = "G44H"
value = -0.319


Could you tell me which scaled log2 fold change is on file for E125Y ?
-0.278

Tell me the measured scaled log2 fold change of A32F , please.
0.304

// lookup scaled log2 fold change for S113G
0.021

Which measured scaled log2 fold change value corresponds to E133H ?
-0.148

Recorded scaled log2 fold change of A174H , please.
0.267

Suppose we examine the variant L144C ; what scaled log2 fold change value has been reported?
0.106
